Protocol Notes: Cytotoxicity against African green monkey Vero cells assessed as reduction in cell viability measured after 72 hrs by MTT assay
Assay type: cell-based
Measurement Conditions: chlorocebus sabaeus
The reader will find reported CC50 at 72 h values listed item by item below.
Endpoint: CC50 at 72 h

COc1ccc(-c2nc(Nc3ccc(-c4nc5cc([N+](=O)[O-])ccc5[nH]4)cc3)c3ccccc3n2)cc1OC : 100 µg/mL
Fc1ccc2[nH]c(-c3ccc(Nc4nc(-c5ccc(Cl)cc5)nc5ccccc45)cc3)nc2c1 : 50 µg/mL
Clc1ccc2[nH]c(-c3ccc(Nc4nc(-c5ccccc5)nc5ccccc45)cc3)nc2c1 : 100 µg/mL
Fc1ccc2[nH]c(-c3ccc(Nc4nc(-c5ccccc5)nc5ccccc45)cc3)nc2c1 : 40 µg/mL
Clc1ccc(-c2nc(Nc3ccc(-c4nc5ccccc5[nH]4)cc3)c3ccccc3n2)cc1 : 50 µg/mL
O=[N+]([O-])c1ccc2[nH]c(-c3ccc(Nc4nc(-c5ccccc5)nc5ccccc45)cc3)nc2c1 : 100 µg/mL
COc1ccc(-c2nc(Nc3ccc(-c4nc5cc(Cl)ccc5[nH]4)cc3)c3ccccc3n2)cc1OC : > 100 µg/mL
c1ccc(-c2nc(Nc3ccc(-c4nc5ccccc5[nH]4)cc3)c3ccccc3n2)cc1 : 80 µg/mL
O=C(Nc1ccc2nc(-c3cnc4c(Cl)cccc4c3)[nH]c2c1)c1ccc(Nc2nc(-c3ccccc3)nc3ccccc23)cc1 : > 100 µg/mL

Taken from ChEMBL document CHEMBL4706624.
